Attribution: patent US6753317

target: µ-opioid receptor (rat brain synaptosomal preparation) (rat)
test protocol: radioligand competition vs [^3H]DAGO, rat brain synaptosomes
Note to self: use rule met only for Ki readings below 10 nM; a reading exactly at 10 nM still gets rule not met.

1. H-Dmt-Tic-Ala-OMe (peptide) ... rule not met
2. H-Dmt-Tic-Ala-OH (peptide) ... rule not met
3. H-Dmt-Tic-Ala-NH2 (peptide) ... rule not met
4. H-Dmt-Tic-Ala-NH-tBu (peptide) ... rule met
5. H-Dmt-Tic-Ala-NHMe (peptide) ... rule met
6. H-Dmt-Tic-Ala-NH-1-adamantane (peptide) ... rule met

###

Form field: pKi (one value per entry).
target: δ-opioid receptor (rat brain synaptosomal preparation) (rat) (UniProt P33533)
Sequence (P33533 whole entry, stated change not applied): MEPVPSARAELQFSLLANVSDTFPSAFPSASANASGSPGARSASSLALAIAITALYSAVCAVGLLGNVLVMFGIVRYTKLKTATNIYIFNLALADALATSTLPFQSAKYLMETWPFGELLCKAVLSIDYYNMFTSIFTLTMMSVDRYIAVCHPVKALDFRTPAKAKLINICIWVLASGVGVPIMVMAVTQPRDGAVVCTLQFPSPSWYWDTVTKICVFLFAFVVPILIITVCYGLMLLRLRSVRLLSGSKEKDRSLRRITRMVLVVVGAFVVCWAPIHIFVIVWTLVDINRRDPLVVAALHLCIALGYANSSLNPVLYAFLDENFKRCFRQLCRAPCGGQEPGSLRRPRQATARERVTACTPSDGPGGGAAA
test protocol: radioligand competition vs [^3H]DPDPE, rat brain synaptosomes
pKi: −log10 of the molar value.
quantity measured: pKi

1. H-Dmt-Tic-Ala-NHMe (peptide) ... 10.24
2. H-Dmt-Tic-Ala-NH2 (peptide) ... 9.62
3. H-Dmt-Tic-Ala-OH (peptide) ... 9.54
4. H-Dmt-Tic-Ala-OMe (peptide) ... 9.64
5. H-Dmt-Tic-Ala-NH-tBu (peptide) ... 10.18
6. H-Dmt-Tic-Ala-NH-1-adamantane (peptide) ... 10.14
